Listing of Ki toward Adenosine receptor A3 (Homo sapiens, UniProt P0DMS8), each taken from a published source.
Category scheme (Ki): lower range (below 80 nM), middle range (80 nM to below 500 nM), upper range (500 nM or more)

compound=CNc1nc(-n2cc(CC3CCCC3)nn2)nc2c1ncn2[C@@H]1O[C@H](CO)[C@@H](O)[C@H]1O assigned_label="lower range"
compound=CCOC(=O)c1cnc(NC(c2ccccc2)c2ccccc2)n2nc(-c3ccco3)nc12 assigned_label="middle range"
compound=CCNc1ncc(C(=O)O)c2nc(-c3ccco3)nn12 assigned_label="middle range"
compound=COc1ccc(-c2nc(NC(=O)Nc3ccccc3)n(-c3ccccc3)n2)cc1 assigned_label="upper range"
compound=CCCCn1cc2c(nc(NC(=O)C(c3ccccc3)c3ccccc3)n3nc(-c4ccco4)nc23)n1 assigned_label="lower range"
compound=Cc1ccc(-n2cc3c(n2)c(NC(=O)NCc2ccccc2)nc2ccccc23)cc1 assigned_label="middle range"
compound="Cn1c(=O)c2c(nc3n2CCN(CC(O)c2ccccc2)C3)n(C)c1=O (stereo not given)" assigned_label="upper range"
compound=CC(C)OC(=O)c1cc2c3ccccc3nc(O)n2n1 assigned_label="middle range"
compound=CCCn1c(=O)c2[nH]c(-c3cnn(Cc4nc(-c5ccc(C#N)cc5)no4)c3)nc2n(CCC)c1=O assigned_label="upper range"

====

Listing of Ki toward Adenosine receptor A3 (Homo sapiens, UniProt P0DMS8), each taken from a published source.
Lab note: anything with Ki below 70 nM is marked YES; values at 70 nM or higher are marked NO.

molecule=CCn1c(=O)[nH]c2nc(-c3cnn(Cc4ccccc4)c3)[nH]c2c1=O study_system="Adenosine receptor A3 (Homo sapiens, UniProt P0DMS8)" assigned_label=NO
molecule=CCOC(=O)c1cnc(SC)n2nc(-c3ccco3)nc12 study_system="Adenosine receptor A3 (Homo sapiens, UniProt P0DMS8)" assigned_label=NO
molecule=C=C[C@H]1O[C@@H](n2cnc3c(NOC)nc(Cl)nc32)[C@H](O)[C@@H]1O study_system="Adenosine receptor A3 (Homo sapiens, UniProt P0DMS8)" assigned_label=YES
molecule=CCCCCNC(=O)Nc1nc2nn(CCC(C)C)cc2c2nc(-c3ccco3)nn12 study_system="Adenosine receptor A3 (Homo sapiens, UniProt P0DMS8)" assigned_label=YES
molecule=CCCn1c(=O)c2c(nc3n2CCCN3Cc2cccc(Cl)c2)n(CCC)c1=O study_system="Adenosine receptor A3 (Homo sapiens, UniProt P0DMS8)" assigned_label=NO
molecule=O=C(Nc1nc2c([N+](=O)[O-])cccc2n2c(=O)n(-c3ccccc3)nc12)c1ccccc1 study_system="Adenosine receptor A3 (Homo sapiens, UniProt P0DMS8)" assigned_label=YES
molecule=CNC(=O)[C@H]1O[C@@H](n2cnc3c(NCc4ccccc4)ncnc32)[C@H](O)[C@@H]1O study_system="Adenosine receptor A3 (Homo sapiens, UniProt P0DMS8)" assigned_label=YES
molecule=c1cncc(Nc2ncc(-c3ccncn3)c(-c3ccco3)n2)c1 study_system="Adenosine receptor A3 (Homo sapiens, UniProt P0DMS8)" assigned_label=NO
molecule=Oc1nc2ccc(Cl)cc2n2nc(-c3ccco3)nc12 study_system="Adenosine receptor A3 (Homo sapiens, UniProt P0DMS8)" assigned_label=YES
molecule=Nc1ncnc2c1nc(Br)n2C1CCC1 study_system="Adenosine receptor A3 (Homo sapiens, UniProt P0DMS8)" assigned_label=NO
molecule=CN(C)c1nc(NC(=O)Nc2ccccc2)n2nc(-c3ccco3)nc2n1 study_system="Adenosine receptor A3 (Homo sapiens, UniProt P0DMS8)" assigned_label=NO
molecule=CN1CCN(CCC(=O)Nc2ccc(-c3cn4c(=O)n(-c5ccccc5)nc4c(N)n3)cc2)CC1 study_system="Adenosine receptor A3 (Homo sapiens, UniProt P0DMS8)" assigned_label=NO
molecule=c1ccc2nc(-c3nc4ncncc4[nH]3)cnc2c1 study_system="Adenosine receptor A3 (Homo sapiens, UniProt P0DMS8)" assigned_label=NO
molecule=Nc1nc(-c2ccc(NC(=O)CCN3CCOCC3)cc2)cn2c(=O)n(-c3ccccc3)nc12 study_system="Adenosine receptor A3 (Homo sapiens, UniProt P0DMS8)" assigned_label=NO
molecule=CCCCCCCCn1cc2c(nc(NC(=O)NCCCCC)n3nc(-c4ccco4)nc23)n1 study_system="Adenosine receptor A3 (Homo sapiens, UniProt P0DMS8)" assigned_label=YES
molecule=CCOc1ccc(-c2c(C#N)c(N)nc(SCC(=O)NC)c2C#N)cc1 study_system="Adenosine receptor A3 (Homo sapiens, UniProt P0DMS8)" assigned_label=NO
molecule=CCCn1c(=O)c2[nH]c(-c3cc(C)n(CC(=O)Nc4ccc(N(C)C)cc4)n3)nc2n(CCC)c1=O study_system="Adenosine receptor A3 (Homo sapiens, UniProt P0DMS8)" assigned_label=NO
molecule=Cc1ccc(-n2cc3c(n2)c(NC2CCCCC2)nc2ccccc23)cc1 study_system="Adenosine receptor A3 (Homo sapiens, UniProt P0DMS8)" assigned_label=NO
molecule="CCO/C(O)=C1\\C(C)=NC(C)=C(C(=O)OC)C1c1ccc2c(c1)OCO2 (stereo unspecified)" study_system="Adenosine receptor A3 (Homo sapiens, UniProt P0DMS8)" assigned_label=NO
